- TARGET_OF_ASSAY: T1, monkey (macaca fascicularis) PRLR on HEK293 cells (macaca fascicularis, UniProt A0A2K5WXK1 25-619)
- T1 construct: also called mfPRLR; HEK293/mfPRLR
- T1 sequence: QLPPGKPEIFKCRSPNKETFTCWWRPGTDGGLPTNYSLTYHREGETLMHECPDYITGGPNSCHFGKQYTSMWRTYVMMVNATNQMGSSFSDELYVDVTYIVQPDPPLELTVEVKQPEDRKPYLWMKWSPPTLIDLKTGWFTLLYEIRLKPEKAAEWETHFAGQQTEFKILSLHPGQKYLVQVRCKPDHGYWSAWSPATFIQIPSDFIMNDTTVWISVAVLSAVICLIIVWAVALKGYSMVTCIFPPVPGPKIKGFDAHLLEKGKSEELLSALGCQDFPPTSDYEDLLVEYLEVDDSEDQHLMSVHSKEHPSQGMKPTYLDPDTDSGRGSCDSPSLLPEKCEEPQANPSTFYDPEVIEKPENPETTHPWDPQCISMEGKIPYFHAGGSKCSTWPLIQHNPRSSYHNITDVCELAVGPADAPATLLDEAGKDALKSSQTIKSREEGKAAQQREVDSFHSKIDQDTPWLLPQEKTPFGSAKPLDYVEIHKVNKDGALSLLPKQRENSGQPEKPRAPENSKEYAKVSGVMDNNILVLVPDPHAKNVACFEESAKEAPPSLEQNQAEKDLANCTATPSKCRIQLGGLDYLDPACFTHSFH
- EXPERIMENTAL_PROTOCOL: FACS, HEK293/mfPRLR cells; also: test concentration or dose not given here
PARAMETER_MEASURED: FACS Cell Binding (Fold Above Background) (fold above background)

- BINDER: "H1H6966N (antibody, human IgG1, V domains shown, also called H2M6966N) VH: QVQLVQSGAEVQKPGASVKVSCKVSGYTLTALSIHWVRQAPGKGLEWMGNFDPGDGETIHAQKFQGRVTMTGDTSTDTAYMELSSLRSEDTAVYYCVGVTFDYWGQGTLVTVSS VL: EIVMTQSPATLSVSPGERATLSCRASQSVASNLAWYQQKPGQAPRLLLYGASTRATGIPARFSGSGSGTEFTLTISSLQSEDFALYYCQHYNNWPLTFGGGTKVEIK"
  EXPERIMENTAL_VALUE: 18
- BINDER: "H1H6967N (antibody, human IgG1, V domains shown, also called H2M6967N) VH: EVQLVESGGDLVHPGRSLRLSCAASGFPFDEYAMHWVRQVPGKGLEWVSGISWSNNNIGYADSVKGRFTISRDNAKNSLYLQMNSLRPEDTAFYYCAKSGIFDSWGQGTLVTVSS VL: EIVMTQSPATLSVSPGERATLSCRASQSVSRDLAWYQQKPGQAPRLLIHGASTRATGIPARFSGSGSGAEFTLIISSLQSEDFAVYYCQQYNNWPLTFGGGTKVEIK"
  EXPERIMENTAL_VALUE: 28
- BINDER: "H1H6958N2 (antibody, human IgG1, V domains shown, also called H2M6958N2) VH: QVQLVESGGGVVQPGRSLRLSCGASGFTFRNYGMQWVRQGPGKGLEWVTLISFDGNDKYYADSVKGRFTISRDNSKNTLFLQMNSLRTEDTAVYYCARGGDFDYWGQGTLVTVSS VL: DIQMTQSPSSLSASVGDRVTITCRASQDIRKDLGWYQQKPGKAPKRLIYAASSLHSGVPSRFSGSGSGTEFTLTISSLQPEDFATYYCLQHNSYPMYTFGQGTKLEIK"
  EXPERIMENTAL_VALUE: 30
